Below, each of the compounds is paired with its reported selective drug sensitivity score value.
system: KASUMI-2; assay: selective drug sensitivity score (sDSS, relative to normal bone marrow) (sDSS (score)); higher = more potent and effective on the cell line relative to normal bone marrow cells; settings: 72 h;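 also: ALL cell lines in 384-well plates, five doses spanning 10,000-fold, each plate scaled between vehicle and 100 µmol/L benzalkonium chloride controls, sDSS an adapted area-under-curve metric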
observation.type: selective drug sensitivity score

compound	obs.value
Cc1cccc(-c2nn3c(c2-c2ccnc4ccc(C(N)=O)cc24)CCC3)n1 [Galunisertib] (top concentration 1000 nM)	0
COc1cc2c(N3CCN(C(=O)Nc4ccc(OC(C)C)cc4)CC3)ncnc2cc1OCCCN1CCCCC1 [Tandutinib] (top concentration 1000 nM)	0
CCCOc1ccn2c(C(C)=O)cc(-c3ccccc3S(C)(=O)=O)c2c1 [GSK2801] (top concentration 10000 nM)	4.84
CCCCc1nc2cc(/C=C/C(=O)NO)ccc2n1CCN(CC)CC [Pracinostat] (top concentration 10000 nM)	12.5
Cc1ccc(C(=O)Nc2cccc(C(F)(F)F)c2)cc1Nc1nc(-c2cccnc2)nc2c1cnn2C [NVP-BHG712] (top concentration 10000 nM)	2.38
CC(C)Cn1cnc2c(N)nc3ccccc3c21 [Imiquimod] (top concentration 2500 nM)	1.5
C[C@@H](Oc1ccc2[nH]nc(/C=C/c3cnn(CCO)c3)c2c1)c1c(Cl)cncc1Cl (top concentration 1000 nM)	-7.04
COc1cc2c(Oc3ccc4[nH]c(C)cc4c3F)ncnc2cc1OCCCN1CCCC1 [Cediranib] (top concentration 1000 nM)	0
Cc1sc2c(c1C)C(c1ccc(Cl)cc1)=N[C@@H](CC(=O)Nc1ccc(O)cc1)c1nnc(C)n1-2 [Birabresib] (top concentration 10000 nM)	-9.68
COc1cc2c(cc1OCCCN1CCCC1)N=C(N)C21CCC1 [A-366] (top concentration 25000 nM)	-1.84
Cc1cc(OCc2nnc(SC3CCCC3)n2-c2cccnc2)ccc1-c1ccc(S(C)(=O)=O)cc1 [NMS-873] (top concentration 10000 nM)	4.26
COc1cc2ncnc(Nc3ccc(F)c(Cl)c3)c2cc1NC(=O)/C=C/CN1CCCCC1 [Dacomitinib] (top concentration 1000 nM)	-1.64
CC/C(=C(\c1ccccc1)c1ccc(OCCN(C)C)cc1)c1ccccc1 [Tamoxifen] (top concentration 10000 nM)	5.72
Nc1nc(Cl)nc2c1ncn2[C@@H]1O[C@H](CO)[C@@H](O)[C@@H]1F [Clofarabine] (top concentration 10000 nM)	8.3

The measurements presented in this section are drawn from the supplement of paper PMC8967900.
